- System: PAMPA
- particulars: Papp (x 10^-6 cm/s) – UV Detection / [row 15]; UV Detection
measured.attribute: Papp (×10⁻⁶ cm/s)
Answer format: numeric, ×10⁻⁶ cm/s implied, no suffix.

compound	reported.measurement
CCCCC[C@@H]1OC(=O)[C@@H](C)N(C)C(=O)[C@H](CCCCC)OC(=O)[C@@H](C)N(C)C(=O)[C@H](CCCCC)OC(=O)[C@@H](C)N(C)C(=O)[C@H](CCCCC)OC(=O)[C@@H](C)N(C)C1=O [Compound C1.4, ent-verticilide]	4.66

We now examine a further compound.
Incoming: Query the reported Papp for PAMPA; item: CCCCC[C@@H]1OC(=O)[C@@H](C)N(C)C(=O)[C@H](CCCCC)OC(=O)[C@@H](C)N(C)C(=O)[C@H](CCCCC)OC(=O)[C@@H](C)N(C)C1=O [Compound C1.3, ent-verticilide B1]
Outgoing: 3.57

* * *

- particulars: Well 2 / %R; Well 2; UV detection
Starred links: 1 amine or outer side, 2 acyl side, 3 side chain; linkers in the order of their positions; H or OH if unused. Non-standard residues stand in square brackets, D forms with d. Residues, ends and D or L forms follow the SMILES beside them. *: point of attachment. X2 = CCCCC[C@H](O*)C(=O)OCc1ccccc1; X1 = CCCCC[C@H](O[*:1])C(=O)[*:2]; Ahp(2) = CCCCC[C@H](N)C(=O)O; dNMeA = CN[C@H](C)C(=O)O; Boc = CC(C)(C)OC(=O)*; OBn = c1ccc(CO*)cc1
Each entry below lists one item and its recorded % recovery value.
Answer format: numeric, % implied, no suffix.

Worked cases, answers included:
compound	unit.info	% recovery
CCCCC[C@H](OC(=O)[C@@H](C)N(C)C(=O)[C@H](CCCCC)OC(=O)[C@@H](C)N(C)C(=O)OC(C)(C)C)C(=O)OCc1ccccc1	%	96
CCCCC[C@H](NC(=O)[C@@H](C)N(C)C(=O)OC(C)(C)C)C(=O)N(C)[C@H](C)C(=O)O[C@@H](CCCCC)C(=O)N(C)[C@H](C)C(=O)O[C@@H](CCCCC)C(=O)N(C)[C@H](C)C(=O)O[C@@H](CCCCC)C(=O)OCc1ccccc1 [Compound L2.1] (Boc-[dNMeA][Ahp(2)][dNMeA][X1][dNMeA][X1][dNMeA]-X2)	%	94

We now examine a further compound.
Incoming: Record request: % recovery value, item CCCCC[C@H](NC(=O)[C@@H](C)N(C)C(=O)[C@H](CCCCC)NC(=O)[C@@H](C)N(C)C(=O)[C@H](CCCCC)NC(=O)[C@@H](C)N(C)C(=O)[C@H](CCCCC)NC(=O)[C@@H](C)N(C)C(=O)OC(C)(C)C)C(=O)OCc1ccccc1 [Compound L2.5] (Boc-[dNMeA][Ahp(2)][dNMeA][Ahp(2)][dNMeA][Ahp(2)][dNMeA][Ahp(2)]-OBn)
Outgoing: 89

* * *

- System: PAMPA
- particulars: Papp (x 10^-6 cm/s) / [row 7]; UV detection
Starred links: 1 amine or outer side, 2 acyl side, 3 side chain; linkers in the order of their positions; H or OH if unused. Non-standard residues stand in square brackets, D forms with d. Residues, ends and D or L forms follow the SMILES beside them. *: point of attachment. X2 = CCCCC[C@H](O*)C(=O)OCc1ccccc1; X1 = CCCCC[C@H](O[*:1])C(=O)[*:2]; Ahp(2) = CCCCC[C@H](N)C(=O)O; dNMeA = CN[C@H](C)C(=O)O; Boc = CC(C)(C)OC(=O)*; OBn = c1ccc(CO*)cc1
measured.attribute: Papp (×10⁻⁶ cm/s)
Answer format: numeric, ×10⁻⁶ cm/s implied, no suffix.

Worked cases, answers included:
compound	assayed.target	unit.info	reported.measurement
CCCCC[C@H](NC(=O)[C@@H](C)N(C)C(=O)[C@H](CCCCC)NC(=O)[C@@H](C)N(C)C(=O)[C@H](CCCCC)NC(=O)[C@@H](C)N(C)C(=O)[C@H](CCCCC)NC(=O)[C@@H](C)N(C)C(=O)OC(C)(C)C)C(=O)OCc1ccccc1 [Compound L2.5] (Boc-[dNMeA][Ahp(2)][dNMeA][Ahp(2)][dNMeA][Ahp(2)][dNMeA][Ahp(2)]-OBn)	PAMPA	×10⁻⁶ cm/s	2.4
CCCCC[C@H](NC(=O)[C@@H](C)N(C)C(=O)OC(C)(C)C)C(=O)N(C)[C@H](C)C(=O)O[C@@H](CCCCC)C(=O)N(C)[C@H](C)C(=O)O[C@@H](CCCCC)C(=O)N(C)[C@H](C)C(=O)O[C@@H](CCCCC)C(=O)OCc1ccccc1 [Compound L2.1] (Boc-[dNMeA][Ahp(2)][dNMeA][X1][dNMeA][X1][dNMeA]-X2)	PAMPA	×10⁻⁶ cm/s	3.32

Incoming: Record request: Papp value, item CCCCC[C@H](NC(=O)[C@@H](C)N(C)C(=O)[C@H](CCCCC)OC(=O)[C@@H](C)N(C)C(=O)[C@H](CCCCC)NC(=O)[C@@H](C)N(C)C(=O)[C@H](CCCCC)OC(=O)[C@@H](C)N(C)C(=O)OC(C)(C)C)C(=O)OCc1ccccc1 [Compound L2.3] (Boc-[dNMeA][X1][dNMeA][Ahp(2)][dNMeA][X1][dNMeA][Ahp(2)]-OBn)
Outgoing: 3.05

Incoming: Record request: Papp value, item CCCCC[C@H](NC(=O)[C@@H](C)N(C)C(=O)OC(C)(C)C)C(=O)N(C)[C@H](C)C(=O)N[C@H](CCCCC)C(=O)N(C)[C@H](C)C(=O)O[C@@H](CCCCC)C(=O)N(C)[C@H](C)C(=O)O[C@@H](CCCCC)C(=O)OCc1ccccc1 (stereo in doubt)
Outgoing: 2.8

Incoming: Record request: Papp value, item `CCCCC[C@H](OC(=O)[C@@H](C)N(C)C(=O)[C@H](CCCCC)OC(=O)[C@@H](C)N(C)C(=O)[C@H](CCCCC)OC(=O)[C@@H](C)N(C)C(=O)[C@H](CCCCC)OC(=O)[C@@H](C)N(C)C(=O)OC(C)(C)C)C(=O)OCc1ccccc1`
Outgoing: 1.63

* * *

- Tested on: PAMPA
- particulars: Papp (x 10^-6 cm/s) – UV Detection / [row 22]; UV Detection
measured.attribute: Papp (×10⁻⁶ cm/s)
Answer format: numeric, ×10⁻⁶ cm/s implied, no suffix.

Incoming: Record request: Papp value, item CCCCC[C@@H]1OC(=O)[C@@H](C)N(C)C(=O)[C@H](CCCCC)OC(=O)[C@@H](C)N(C)C(=O)[C@H](CCCCC)OC(=O)[C@@H](C)N(C)C(=O)[C@H](CCCCC)OC(=O)[C@@H](C)N(C)C1=O [Compound C1.4, ent-verticilide]
Outgoing: 5.18

* * *

- particulars: Well 5 / %R; Well 5; UV detection
measured.attribute: % recovery (%)
Answer format: numeric, % implied, no suffix.

molecule	reported.measurement
CCCCC[C@H](NC(=O)[C@@H](C)N(C)C(=O)OC(C)(C)C)C(=O)N(C)[C@H](C)C(=O)N[C@H](CCCCC)C(=O)N(C)[C@H](C)C(=O)O[C@@H](CCCCC)C(=O)N(C)[C@H](C)C(=O)O[C@@H](CCCCC)C(=O)OCc1ccccc1 (stereo in doubt) [Compound L2.2]	89

We now examine a further molecule.
Incoming: Record request: % recovery value, item CCCCC[C@H](OC(=O)[C@@H](C)N(C)C(=O)[C@H](CCCCC)OC(=O)[C@@H](C)N(C)C(=O)OC(C)(C)C)C(=O)OCc1ccccc1 [Compound L1.2]
Outgoing: 82

* * *

- protocol.text: in vitro
- particulars: PAMPA, Papp, Ave
measured.attribute: Papp at 500 uM (×10⁻⁶ cm/s)
Answer format: numeric, ×10⁻⁶ cm/s implied, no suffix.

molecule	measured.attribute	reported.measurement
CCCCC[C@@H]1OC(=O)[C@@H](C)N(C)C1=O [Compound C1.1]	Papp at 500 uM	14.1

We now examine a further molecule.
Incoming: Record request: Papp at 500 uM value, item CCCCC[C@@H]1OC(=O)[C@@H](C)N(C)C(=O)[C@H](CCCCC)OC(=O)[C@@H](C)N(C)C1=O [Compound C1.2]
Outgoing: 4.78

* * *

- Test system: PAMPA
- particulars: Papp (x 10^-6 cm/s) – UV Detection / [row 12]; UV Detection
measured.attribute: Papp (×10⁻⁶ cm/s)
Answer format: numeric, ×10⁻⁶ cm/s implied, no suffix.

molecule	unit.info	reported.measurement
CCCCC[C@@H]1OC(=O)[C@@H](C)N(C)C(=O)[C@H](CCCCC)OC(=O)[C@@H](C)N(C)C(=O)[C@H](CCCCC)OC(=O)[C@@H](C)N(C)C(=O)[C@H](CCCCC)OC(=O)[C@@H](C)N(C)C1=O [Compound C1.4, ent-verticilide]	×10⁻⁶ cm/s	6.98

Incoming: Record request: Papp value, item CCCCC[C@@H]1OC(=O)[C@@H](C)N(C)C(=O)[C@H](CCCCC)OC(=O)[C@@H](C)N(C)C(=O)[C@H](CCCCC)OC(=O)[C@@H](C)N(C)C1=O [Compound C1.3, ent-verticilide B1]
Outgoing: 3.17
